# Assay details: Waters SunFire C18, 150 × 2.1 mm, 3.5 µm, 25 °C, 0.25 mL/min, estimated dead time 1.3 min; A: water + 0.1% formic acid; B: methanol; gradient (min/%B) 0/5 30/100
# Details: stereoisomer not certain
Listing: LC retention time of selected compounds
All answers are understood in min, so give the number only.

LC retention time in this record for COc1ccc2[nH]c3c(c2c1)CCN1CC2CC3C1C(C(C)O)C2 (centres undefined) : 14.9

LC retention time in this record for CC=C1CN(C)CCC23C(=O)CC1C1COC(OC)C(=O)N(c4ccccc42)C13 (centres undefined) : 16

LC retention time in this record for CC=C1C[N+]2(C)CCc3c4n(c5ccccc35)C(CO)C1CC42 (centres undefined) : 14.8

Continuing:
LC retention time in this record for CCC12CCCN3C(=O)C=C(c4ccccc4NC(=O)CC1)C32O (centres undefined) : 18.1

LC retention time in this record for C=CC1CN2CCC1CC2C(O)c1ccnc2ccc(OC)cc12 (centres undefined) : 13.7

LC retention time in this record for CC=C1CN2CCC34Cc5cc6c7c([nH]c6cc5OC35C2CC1C(C(=O)OC)N5c1ccccc14)CCC1(CC)CCCN(CC7)C1 (centres undefined) : 14.7

LC retention time in this record for "Cc1[nH]ccc2c(C)c3nc4ccccc4c3cc12" : 21.5

LC retention time in this record for CC=C1CN2CCC34c5cc(-c6cc7c(cc6OC)C68CCN9CC(=CC)C(CCC96N7C)C8C(=O)OC)c(OC)cc5N(C)C3C2CC1C4C(=O)OC (centres undefined) : 16.9

LC retention time in this record for CCC1CN2CCc3c([nH]c4ccccc34)C2CC1CC=O (centres undefined) : 14.4

====

# Assay details: Waters SunFire C18, 150 × 2.1 mm, 3.5 µm, 25 °C, 0.25 mL/min, estimated dead time 1.3 min; A: water + 0.1% formic acid; B: methanol; gradient (min/%B) 0/5 30/100
# Details: stereoisomer not certain
Labelling field: enter TRUE if recorded LC retention time is less than 20 min. Enter FALSE if it equals or exceeds that cut-off.

Completed entries (count: 5):
**Q:** State whether 20 min exceeds LC retention time recorded for COC(=O)C1CC23C=CC(=O)N2CCC2(C(=O)OC)c4ccccc4N(C(=O)OC)C12CC3 (centres undefined) .
**A:** FALSE

**Q:** State whether 20 min exceeds LC retention time recorded for CC=C1CN2CCc3c([nH]c4ccccc34)C2CC1C(C=O)C(=O)OC (centres undefined) .
**A:** TRUE

**Q:** State whether 20 min exceeds LC retention time recorded for COC(=O)C1CC23CCCN4CCC5(c6cc(Cc7ccc8c(c7)C79CCN%10CCCC%11(CCC7(N8)C(C(=O)O)C%11)C%109)ccc6N(C)C15CC2)C43 (centres undefined) .
**A:** TRUE

**Q:** State whether 20 min exceeds LC retention time recorded for "O=c1c2cncc3c2c(c2n1CCc1c-2[nH]c2ccccc12)C=C3" .
**A:** FALSE

**Q:** State whether 20 min exceeds LC retention time recorded for CC=C1CN2C(C3C(=O)N4c5ccccc5C56CCN7CC8=CCOC3C(C8CC75)C46)CC34c5ccccc5N5C(=O)CC=C(C1CC23)C54 (centres undefined) .
**A:** TRUE

Continuing:
**Q:** State whether 20 min exceeds LC retention time recorded for CC=C1CN2C(C3=CC4C5CC6N(CCC67c6ccccc6N(C3=O)C47)CC5=CC)CC34c5ccccc5N5C(=O)CC=C(C1CC23)C54 (centres undefined) .
**A:** TRUE

**Q:** State whether 20 min exceeds LC retention time recorded for CCC1(O)CC2CN(CCc3c([nH]c4ccccc34)C(C(=O)OC)(c3cc4c(cc3OC)N(C)C3C(O)(C(=O)OC)C(OC(C)=O)C5(CC)C=CCN6CCC43C65)C2)C1 (centres undefined) .
**A:** TRUE

**Q:** State whether 20 min exceeds LC retention time recorded for CCC12C=CCN3CCC4(C(=C(C(=O)OC)C1)Nc1ccccc14)C32 (centres undefined) .
**A:** TRUE

**Q:** State whether 20 min exceeds LC retention time recorded for C=CC1CN2CCC1CC2c1[nH]c2ccccc2c1CCO (centres undefined) .
**A:** TRUE

**Q:** State whether 20 min exceeds LC retention time recorded for COC(=O)C1C2CC3c4[nH]c5cc(OC)ccc5c4CCN3CC2CC(OC(=O)c2cc(OC)c(OC)c(OC)c2)C1OC (centres undefined) .
**A:** FALSE

====

# Assay details: Waters SunFire C18, 150 × 2.1 mm, 3.5 µm, 25 °C, 0.25 mL/min, estimated dead time 1.3 min; A: water + 0.1% formic acid; B: methanol; gradient (min/%B) 0/5 30/100
# Details: stereoisomer not certain
Observation type: LC retention time (min)
All answers are understood in min, so give the number only.

LC retention time in this record for CCC1CC2CN3CCc4c([nH]c5ccccc45)C(C(=O)OC)(C2)C13 (stereo not drawn) : 16.9

LC retention time in this record for CC1OC=C2C(=O)N3CCc4c([nH]c5ccccc45)C3CC2C1C=O (stereo not drawn) : 27.3

LC retention time in this record for CCC1CN2CCc3c([nH]c4ccccc34)C2CC1CC1c2[nH]c3ccccc3c2CCN1C (stereo not drawn) : 14.7

LC retention time in this record for CCC1CN(C)C2Cc3c([nH]c4ccccc34)C(c3cc4c5c([nH]c4cc3OC)C3(C(=O)OC)CC4CC(CC)C3N(CC5)C4=O)CC1C2C(=O)OC (stereo not drawn) : 22.6

LC retention time in this record for O=C1CC(O)C2C3CC4N(CCC45c4ccccc4N1C25)CC3=CCO (stereo not drawn) : 10.1

LC retention time in this record for CCC1(O)CC23CC4N(CCC45C(=C2C(=O)OC)Nc2ccccc25)C13 (stereo not drawn) : 14.8

Continuing:
LC retention time in this record for CC=C1CN2CCC34C(=C(C(=O)OC)C1CC23)Nc1ccccc14 (stereo not drawn) : 11.1

LC retention time in this record for C=C1C2CC(=O)c3[nH]c4ccccc4c3C1N(C)CC2=CC (stereo not drawn) : 14.2

LC retention time in this record for CC=C1CN2CCC3=C([NH2+]c4ccccc43)C2CC1C(Cc1cn2c(c3nc4ccccc4c1-3)CC1C(C(=O)OC)=COC(C)C1C2)C(=O)OC (stereo not drawn) : 18.2

LC retention time in this record for C=CC(CO)C1CCN2CCc3c([nH]c4ccccc34)C2C1 (stereo not drawn) : 18.5

LC retention time in this record for C=CC1C(OC2OC(CO)C(O)C(O)C2O)OC=C(C(=O)OC)C1CC1NCCc2c1[nH]c1ccccc21 (stereo not drawn) : 17

LC retention time in this record for COc1ccc2c(c1)N1C(=O)CC3OCC=C4CN5CCC26C5CC4C3C16 (stereo not drawn) : 16.8

LC retention time in this record for CC=C(C=O)C1CC2c3c(c4ccccc4n3C(O)C1)CCN2C (stereo not drawn) : 16.1

====

# Assay details: Waters SunFire C18, 150 × 2.1 mm, 3.5 µm, 25 °C, 0.25 mL/min, estimated dead time 1.3 min; A: water + 0.1% formic acid; B: methanol; gradient (min/%B) 0/5 30/100
# Details: stereoisomer not certain
Listing: LC retention time of selected molecules
All answers are understood in min, so give the number only.

Here are 9 molecules together with their reported answers.
LC retention time in this record for CCC1CN2CCc3c([nH]c4ccccc34)C2CC1Cc1nccc2c1[nH]c1ccccc12 (stereo not given) : 14.5

LC retention time in this record for CC=C1CN2CCc3c([nH]c4ccc(O)cc34)C2CC1CCO (stereo not given) : 11.7

LC retention time in this record for C=CC1CN2CCc3c([nH]c4ccccc34)C2CC1CCO (stereo not given) : 13.7

LC retention time in this record for CCC1CN2CCC34C5=C(CC6(CC7CC(CC)N8CCC9(C6=Nc6ccccc69)C78)CN5c5ccccc53)C1CC24 (stereo not given) : 16.3

LC retention time in this record for COC(=O)C1=C2Nc3ccccc3C23CCN2CC(C(C)O)C1CC23 (stereo not given) : 10.8

LC retention time in this record for CCC1CN2CCc3c([nH]c4ccccc34)C2CC1CC1NCCc2c1[nH]c1ccccc21 (stereo not given) : 16.6

LC retention time in this record for CCC12C=CCN3CCc4c(n(c5ccccc45)C(O)(C(=O)OC)C1)C32 (stereo not given) : 13

LC retention time in this record for CC1OCC2C3CC4(O)N(CCC45c4ccccc4N(C(=O)CO)C25)CC13 (stereo not given) : 11.8

LC retention time in this record for CC=C1CN(C)C2Cc3c([nH]c4ccccc34)C(=O)CC1C2C(=O)OC (stereo not given) : 15.3

Query molecule follows.
LC retention time in this record for CCC1CN2CCC3(C(=O)Nc4ccccc43)C2CC1C(=COC)C(=O)OC (stereo not given) : 16.4
